# protocol_notes: probe aLefty2 binding to arrayed compounds – biochemical, biotinylated probe, 635/667 nm fluorescence, primary screen (AID 1094);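 note: score merges spot fluorescence near 667 nm with spot signal-to-noise ratio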
# condition_details: small-molecule microarray, higher = more signal
readout: composite z-score
// response body must contain only the number

In: Need composite z-score of `C=CCOC(=O)[C@H]1[C@@H]2C(=O)O[C@@H](c3ccccc3)[C@@H](c3ccccc3)N2[C@@H](c2ccc(OCCOC(=O)[C@H]3C[C@H]4C(=O)N[C@@H](CCCCN(C)C)C(=O)N4[C@H]3c3cccc(OCCO)c3)cc2)[C@]12C(=O)Nc1ccc(I)cc12` , thanks.
Out: -0.129

In: And the next one, COc1ccc(C(O)C2C=CC3C(=O)N(C)C(=O)C3N2N(c2ccccc2)c2ccccc2)c2ccccc12 (stereo not given) ?
Out: 0.242

In: And the next one, `O=C1[C@@]23C=C(Br)[C@H](C[C@@H]2COC3)[C@]12CO2` ?
Out: -0.14

In: And the next one, `COC(=O)c1c(CC[C@@H](CO)NC(=O)N[C@H](Cc2ccccc2)Cn2cc(-c3ccccn3)nn2)oc(C(C)=O)c1C(=O)OC` ?
Out: -0.207

In: And the next one, `COC(=O)[C@]1(Cc2ccccc2)N=C(c2ccc(OCCCO)cc2)O[C@@H]1c1ccccc1N=[N+]=[N-]` ?
Out: -0.0389

In: And the next one, CCC(CC)C(O)C1C=CC2C(=O)N(c3ccccc3)C(=O)C2N1Nc1ccccc1 (stereo not given) ?
Out: 0.503

In: And the next one, `CCOC(=O)C1=CC[C@@H](c2ccccc2)N(S(=O)(=O)c2ccc(C)cc2)[C@H]1c1ccc(CC)cc1` ?
Out: 0.05

In: And the next one, `CCOC(=O)C[C@H]1[C@H](OC(=O)c2ccc(-c3ccccc3)cc2)[C@@H](NC(=O)c2ccccc2)c2cc(OCCCO)ccc2N1C(=O)Cc1ccc(OC)cc1` ?
Out: -0.192

In: And the next one, `COC(=O)[C@@]1(Cc2ccccc2)[C@H]2c3cc(C(=O)N4CCCC4)n(Cc4c(CO)[nH]cc(C)c4=O)c3C[C@H]2CN1C(=O)c1ccccc1` ?
Out: 0.539

In: And the next one, O=C1C2C=CC(C(O)COCc3ccccc3)N(Nc3ccc([N+](=O)[O-])cc3)C2C(=O)N1c1ccccc1 (stereo not given) ?
Out: 0.168

In: And the next one, O=C1C2C=CC(C(O)c3ccc(-c4ccccc4)s3)N(Nc3ccccc3)C2C(=O)N1c1ccccc1 (stereo not given) ?
Out: 0.0711

In: And the next one, `COCCOC(=O)N1C(=O)[C@@]2(c3ccccc31)[C@H](c1ccc(OCCO)cc1)N1[C@H](c3ccccc3)[C@H](c3ccccc3)OC(=O)[C@H]1[C@@H]2C(=O)N1CCc2cc(OC)c(OC)cc2C1` ?
Out: 0.284

In: And the next one, C=CC1c2cc(O)c(OC)cc2CCN1Cc1cccc(OC(F)(F)F)c1 (stereo not given) ?
Out: -0.129

In: And the next one, `C=CC[C@]1(C(N)=O)N=C(c2ccc(OCCCO)cc2)O[C@H]1c1ccccc1` ?
Out: 0.0493

In: And the next one, `O=C(CS)NCCCCCNC(=O)[C@H]1C[C@H]2C(=O)NCC(=O)N2[C@H]1c1ccc(O)cc1` ?
Out: -0.179

----------
# target_desc: Concanavalin-A (Canavalia ensiformis)
# protocol_notes: compounds binding concanavalin A lectin – biochemical, small-molecule microarray, Alexa647 label, 635 nm, artefact control for SMM control protein annotation, primary screen (AID 1127);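 note: z combines 667 nm emission intensity with signal-to-noise across three replicate slides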
# condition_details: ConA-A647 binding fluorescence, higher = more signal
readout: composite z-score

In: Need composite z-score of `C=C(CCCC)/C(=C/C[C@@H](OC(C)=O)c1cccc(OCCO)c1)c1cnc2ccccc2c1` , thanks.
Out: 0.606

In: And the next one, `COCCOC(=O)N1C(=O)[C@@]2(c3cc(C#Cc4ccc(OC)cc4)ccc31)[C@H](c1ccc(O)cc1)N1[C@H](c3ccccc3)[C@H](c3ccccc3)OC(=O)[C@H]1[C@@H]2C(=O)Nc1nc2ccccc2s1` ?
Out: 1.16

In: And the next one, `COC(=O)[C@@]1(Cc2ccc(OC)cc2)[C@H]2c3cc(C(=O)N(C)C)n(Cc4ccc(C(F)(F)F)nc4)c3C[C@H]2CN1C(=O)c1ccccc1` ?
Out: -0.0962

In: And the next one, `COCCCNC(=O)[C@@]1(Cc2ccccc2CN=[N+]=[N-])N=C(c2ccc(OCCCO)cc2)O[C@H]1c1ccccc1CN=[N+]=[N-]` ?
Out: 0.972

In: And the next one, `Cc1c(NC(=O)/C(C#N)=C/c2cccc([N+](=O)[O-])c2)c(=O)n(-c2ccccc2)n1C` ?
Out: 0.456

In: And the next one, `COc1ccc([Si](C)(C)[C@@H]2[C@@H](CC(=O)N3CCC[C@H]3CO)O[C@]3(C(=O)N(Cc4cccc(I)c4)c4ccccc43)[C@H]2C)cc1` ?
Out: 0.938

In: And the next one, `CCOC(=O)C[C@H]1[C@H](OC(=O)c2cc3ccccc3oc2=O)[C@@H](NC(=O)CC(C)C)c2cc(OCCCO)ccc2N1C(=O)c1ccccc1` ?
Out: 0.298

----------
# protocol_notes: plasmodial surface anion channel blockers, osmotic lysis – cell-based, P. falciparum Indochina, OD700, 18 h, primary screen (AID 1157)
# condition_details: P. falciparum Indochina infected erythrocytes, osmotic lysis OD700, 18 h; higher = more signal, called active from +8 up or from −8 down
readout: z-score
// response body must contain only the number

In: Need z-score of `O=C(O)[C@H]1C[C@H]2C(=O)N3CCC[C@H]3C(=O)N2[C@H]1c1ccc(O)cc1` , thanks.
Out: 0.104

In: And the next one, `COC(=O)c1c(CC[C@@H](CO)NC(=O)NCCc2c[nH]c3ccccc23)oc(C(=O)Cc2ccccc2)c1C(=O)OC` ?
Out: -1.01

In: And the next one, `CCCC[C@H]1C[C@@H]1[C@@H]1N(P(=O)(c2ccccc2)c2ccccc2)C[C@@](O)(c2ccccc2)CC12CC2` ?
Out: 1.55

In: And the next one, `CCCC[C@@H]1C[C@H]1[C@@H](NC(=O)c1cccnc1)c1ccc(Cl)cc1` ?
Out: 1.03

In: And the next one, O=C1OCCC/C=C\[C@H]2OC34C=CCN(c5ccc6ccccc6c5)C(=O)[C@H]3N(CCCCCO)C(=O)[C@@H]4C12 (stereo partly specified) ?
Out: -0.181

In: And the next one, `COC(=O)[C@@]1(Cc2ccc(OC)cc2)[C@H]2c3cc(C(=O)N4CCCC4)n(CCCNc4ncc(C(F)(F)F)cc4Cl)c3C[C@H]2CN1C(=O)c1ccccc1` ?
Out: 1.13

In: And the next one, CC(CO)N1C(=O)[C@@H]2C3C(=O)OCCC/C=C\[C@H]3OC23C=CCN(CCN2CCOCC2)C(=O)[C@@H]13 (stereo partly specified) ?
Out: 0.01

In: And the next one, `[N-]=[N+]=NCc1ccccc1[C@@H]1OC(c2ccc(OCCCO)cc2)=N[C@]1(CCS(=O)(=O)c1ccccc1)C(=O)N1CCOCC1` ?
Out: 0.45

In: And the next one, `COCCOC(=O)N1C(=O)[C@@]2(c3ccccc31)[C@H](C(N)=O)[C@H]1C(=O)O[C@H](c3ccccc3)[C@H](c3ccccc3)N1[C@@H]2c1ccc(O)cc1` ?
Out: -2.25

In: And the next one, `C#CCN1[C@H](/C=C/C2CC2)[C@H](Cc2ccccc2)OC(=O)[C@@H]1Cc1ccccc1` ?
Out: -0.16

In: And the next one, `COCCOC(=O)N1C(=O)[C@@]2(c3cc(C#Cc4ccc(OC)cc4)ccc31)[C@H](c1ccc(O)cc1)N1[C@H](c3ccccc3)[C@H](c3ccccc3)OC(=O)[C@H]1[C@@H]2C(=O)Nc1nc2ccccc2s1` ?
Out: 1.01

In: And the next one, `COc1ccc(C(=O)Nc2cccc(CN3C(=O)[C@]4(O[C@H](CCn5cc(CCO)nn5)[C@@H]([Si](C)(C)c5ccc(OC)cc5)[C@@H]4C)c4ccccc43)c2)cc1` ?
Out: 1.7

In: And the next one, `NCCCCCCNC(=O)[C@H]1C[C@H]2C(=O)N[C@@H](Cc3ccccc3)C(=O)N2[C@H]1c1cccc(OCCO)c1` ?
Out: 0.472

In: And the next one, `COc1ccc([Si](C)(C)[C@@H]2[C@@H](CCn3cc(CCO)nn3)O[C@]3(C(=O)N(Cc4cccc(N5C(=O)c6cccc7cccc5c67)c4)c4ccccc43)[C@H]2C)cc1` ?
Out: -0.682

In: And the next one, `COC(=O)[C@H](Cc1ccccc1)N[C@H](/C=C/C1CC1)[C@@H](O)Cc1ccccc1` ?
Out: -1.83

In: And the next one, `COC(=O)[C@@]1(Cc2ccc(F)cc2)[C@H]2c3cc(C(=O)N(C)C)n(Cc4cc(C)n(C)n4)c3C[C@H]2CN1C(=O)c1ccccc1` ?
Out: 0.495

In: And the next one, `NCCCCCNC(=O)[C@H]1C[C@H]2C(=O)N[C@@H](Cc3ccccc3)C(=O)N2[C@H]1c1cccc(OCCO)c1` ?
Out: 0.325

In: And the next one, O=C1NC(=O)C2C1C=CC(C(O)c1ccc(-c3ccccc3)s1)N2Nc1ccc(Cl)cc1Cl (stereo unspecified) ?
Out: 1.07

In: And the next one, `COc1ccc([C@H]2OC[C@@H]3CCC(=O)N32)cc1` ?
Out: 0.48

In: And the next one, `O=C1[C@@]23C=C(Br)[C@H](C[C@@H]2COC3)[C@]12CO2` ?
Out: -0.334

In: And the next one, `Cc1ccc(S(=O)(=O)N2C[C@@H](C(=O)O)[C@H](Sc3ccccc3)C[C@H]2c2ccccc2)cc1` ?
Out: 0.806

Source: PubChem BioAssay
